# experimental-system: C10-11 mAb
# experiment-summary: Competitive ELISA with AChE-labeled C10 peptide on C10-11 mAb
# Parameters: species or system mouse
# measurement-setup: read-out: Apparent dissociation constant (Kapp) of C10-11 mAb; concentration of competitor inducing 50% inhibition of binding of AChE-labeled C10 peptide (0.5 EU/mL); mAb 1 ng/mL, overnight at 4 °C; NB means no binding
# Experimental: The apparent affinity of anti-C10 peptide mAbs for different variants of C10 peptides and recombinant OspC was measured by competitive ELISA, using goat anti-mouse antibodies (Jackson ImmunoResearch, Cambridgeshire, United Kingdom) coated on the wells of a microtiter plate. A mix of anti-C10 peptide mAb (1 ng/mL), AChE-labeled C10 peptide (0.5 EU/mL) and different concentrations of competitor peptide or recombinant OspC were reacted overnight in the wells at 4 °C.
Where no end group is shown, it is not given here.
measured-endpoint: Kd

>  <sequence-entry>
PVVAESPKKT [compound 3]

>  <experimental-system>
C10-11 mAb

>  <obs-value>
0.06 µM

$$$$
>  <sequence-entry>
PVVAEAPKKP [compound 2]

>  <experimental-system>
C10-11 mAb

>  <obs-value>
0.146 µM

$$$$
>  <sequence-entry>
PVVAESPKKP [compound 1, reference compound]

>  <experimental-system>
C10-11 mAb

>  <obs-value>
0.033 µM

$$$$
>  <sequence-entry>
PIVAESPKKP [compound 10]

>  <experimental-system>
C10-11 mAb

>  <obs-value>
0.1 µM

$$$$
>  <sequence-entry>
PVVAESQKKP [compound 7]

>  <experimental-system>
C10-11 mAb

>  <obs-value>
0.17 µM

$$$$
>  <sequence-entry>
PVVAETPKKP [compound 5]

>  <experimental-system>
C10-11 mAb

>  <obs-value>
0.179 µM

$$$$
>  <sequence-entry>
PVMAESPKKP [compound 9]

>  <experimental-system>
C10-11 mAb

>  <obs-value>
0.125 µM

$$$$
